Assign CypB Kd to each entry below.
target: cyclophilin B (CypB) (Homo sapiens (Human)); experiment: Inhibitor binding to cyclophilin proteins by SPR, CypB; parameters: unit not given here; settings: 1:1 binding model
Sequence (P23284 34-216): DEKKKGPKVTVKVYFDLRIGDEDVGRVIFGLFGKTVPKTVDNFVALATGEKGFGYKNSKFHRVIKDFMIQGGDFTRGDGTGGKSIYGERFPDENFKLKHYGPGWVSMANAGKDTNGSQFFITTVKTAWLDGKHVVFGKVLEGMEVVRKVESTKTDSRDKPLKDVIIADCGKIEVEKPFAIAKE
Starred links: 1 amine or outer side, 2 acyl side, 3 side chain; linkers in the order of their positions; H or OH if unused. Non-standard residues stand in square brackets, D forms with d. Residues, ends and D or L forms follow the SMILES beside them. X66 = C[C@H](COCC(=O)N1CCN(C)CC1)[C@@H](C(=O)[*:2])N(C)[*:1]; X22 = C[C@H](CN1CCN(C2CCC2)CC1)[C@@H](C(=O)[*:2])N(C)[*:1]; X6 = C[C@@H](CN1CCN(C2COC2)CC1)[C@@H](C(=O)[*:2])N(C)[*:1]; X63 = C[C@H](CN1CCN(C2COC2)CC1)[C@@H](C(=O)[*:2])N(C)[*:1]; NMe(dihydroBmt) = CCCC[C@@H](C)[C@@H](O)[C@H](NC)C(=O)O; MeBmt = C/C=C/C[C@@H](C)[C@@H](O)[C@H](NC)C(=O)O; NMeL = CN[C@@H](CC(C)C)C(=O)O; NMeV = CN[C@H](C(=O)O)C(C)C; dNMeA = CN[C@H](C)C(=O)O; Abu = CC[C@H](N)C(=O)O
// print number alone

For this compound ( C/C=C/C[C@@H](C)[C@@H](O)[C@H]1C(=O)N[C@@H](CC)C(=O)N(C)[C@H](C)C(=O)N(C)[C@@H]([C@H](C)CCCN2CCC(OC)CC2)C(=O)N[C@@H](C(C)C)C(=O)N(C)[C@@H](CC(C)C)C(=O)N[C@@H](C)C(=O)N[C@H](C)C(=O)N(C)[C@@H](CC(C)C)C(=O)N(C)[C@@H](CC(C)C)C(=O)N(C)[C@@H](C(C)C)C(=O)N1C (stereo in doubt) ), measured CypB Kd is 0.5

For this compound ( C/C=C/C[C@@H](C)[C@@H](O)[C@H]1C(=O)N[C@@H](CC)C(=O)N(C)[C@H](C)C(=O)N(C)[C@@H]([C@H](C)COCC(=O)N2CCN(C)CC2)C(=O)N[C@@H](C(C)C)C(=O)N(C)[C@@H](CC(C)C)C(=O)N[C@@H](C)C(=O)N[C@H](C)C(=O)N(C)[C@@H](CC(C)C)C(=O)N(C)[C@@H](CC(C)C)C(=O)N(C)[C@@H](C(C)C)C(=O)N1C [Compound 2.6.3] (cyclo(A[dA][NMeL][NMeL][NMeV][MeBmt][Abu][dNMeA][X66]V[NMeL])) ), measured CypB Kd is 0.8

For this compound ( CCCC[C@@H](C)[C@@H](O)[C@H]1C(=O)N[C@@H](CC)C(=O)N(C)[C@H](C)C(=O)N(C)[C@@H]([C@H](C)CN2CCN(C3CCC3)CC2)C(=O)N[C@@H](C(C)C)C(=O)N(C)[C@@H](CC(C)C)C(=O)N[C@@H](C)C(=O)N[C@H](C)C(=O)N(C)[C@@H](CC(C)C)C(=O)N(C)[C@@H](CC(C)C)C(=O)N(C)[C@@H](C(C)C)C(=O)N1C [Compound 2.5.15] (cyclo([NMe(dihydroBmt)][Abu][dNMeA][X22]V[NMeL]A[dA][NMeL][NMeL][NMeV])) ), measured CypB Kd is 0.7

For this compound ( C/C=C/C[C@@H](C)[C@@H](O)[C@H]1C(=O)N[C@@H](CC)C(=O)N(C)[C@H](C)C(=O)N(C)[C@@H]([C@@H](C)CN2CCN(C3COC3)CC2)C(=O)N[C@@H](C(C)C)C(=O)N(C)[C@@H](CC(C)C)C(=O)N[C@@H](C)C(=O)N[C@H](C)C(=O)N(C)[C@@H](CC(C)C)C(=O)N(C)[C@@H](CC(C)C)C(=O)N(C)[C@@H](C(C)C)C(=O)N1C [Compound 2.17.5] (cyclo(A[dA][NMeL][NMeL][NMeV][MeBmt][Abu][dNMeA][X6]V[NMeL])) ), measured CypB Kd is 0.5

For this compound ( C/C=C/C[C@@H](C)[C@@H](O)[C@H]1C(=O)N[C@@H](CC)C(=O)N(C)[C@H](C)C(=O)N(C)[C@@H]([C@H](C)CN2CCN(C3COC3)CC2)C(=O)N[C@@H](C(C)C)C(=O)N(C)[C@@H](CC(C)C)C(=O)N[C@@H](C)C(=O)N[C@H](C)C(=O)N(C)[C@@H](CC(C)C)C(=O)N(C)[C@@H](CC(C)C)C(=O)N(C)[C@@H](C(C)C)C(=O)N1C [Compound 2.5.11] (cyclo(A[dA][NMeL][NMeL][NMeV][MeBmt][Abu][dNMeA][X63]V[NMeL])) ), measured CypB Kd is 1.2
